# System: p21 promoter
# Experimental protocol: Cell-based p21 promoter luciferase screen with IC50 validation in H1299 cells with doxycycline-inducible p53
# Condition details: Homo sapiens, NCI-H1299, p53 induced with doxycycline 0.5 μg/ml, luciferase under p21 promoter, about 20 hours
pIC50: −log10 of the molar value.
# pIC50 annotations

# Compound, pIC50
records = [
    ("CCOC(=O)c1ccc(Nc2nc3nonc3nc2Nc2cccc(C)c2C)cc1", 6.12),
    ("COc1ccc(C2C(C#N)=C(N)Oc3c2ccc2ccccc32)cc1C (stereo not shown)", 5.95),
    ("O=c1c2ccccc2c2nccc3c4cc(O)ccc4n1c32", 5.97),
    ("CC(C)c1ccc(-c2c(C#N)c(N)n3c(nc4ccccc43)c2C#N)cc1", 5.95),
]
